Data origin: patent US20250263489A1

biological target: IGF-1 receptor on the cells of the PathHunter IGF1R Functional Assay (DiscoverX) (UniProt P08069 31-1367); assay: cell-based or functional assay
Sequence (P08069 31-1367): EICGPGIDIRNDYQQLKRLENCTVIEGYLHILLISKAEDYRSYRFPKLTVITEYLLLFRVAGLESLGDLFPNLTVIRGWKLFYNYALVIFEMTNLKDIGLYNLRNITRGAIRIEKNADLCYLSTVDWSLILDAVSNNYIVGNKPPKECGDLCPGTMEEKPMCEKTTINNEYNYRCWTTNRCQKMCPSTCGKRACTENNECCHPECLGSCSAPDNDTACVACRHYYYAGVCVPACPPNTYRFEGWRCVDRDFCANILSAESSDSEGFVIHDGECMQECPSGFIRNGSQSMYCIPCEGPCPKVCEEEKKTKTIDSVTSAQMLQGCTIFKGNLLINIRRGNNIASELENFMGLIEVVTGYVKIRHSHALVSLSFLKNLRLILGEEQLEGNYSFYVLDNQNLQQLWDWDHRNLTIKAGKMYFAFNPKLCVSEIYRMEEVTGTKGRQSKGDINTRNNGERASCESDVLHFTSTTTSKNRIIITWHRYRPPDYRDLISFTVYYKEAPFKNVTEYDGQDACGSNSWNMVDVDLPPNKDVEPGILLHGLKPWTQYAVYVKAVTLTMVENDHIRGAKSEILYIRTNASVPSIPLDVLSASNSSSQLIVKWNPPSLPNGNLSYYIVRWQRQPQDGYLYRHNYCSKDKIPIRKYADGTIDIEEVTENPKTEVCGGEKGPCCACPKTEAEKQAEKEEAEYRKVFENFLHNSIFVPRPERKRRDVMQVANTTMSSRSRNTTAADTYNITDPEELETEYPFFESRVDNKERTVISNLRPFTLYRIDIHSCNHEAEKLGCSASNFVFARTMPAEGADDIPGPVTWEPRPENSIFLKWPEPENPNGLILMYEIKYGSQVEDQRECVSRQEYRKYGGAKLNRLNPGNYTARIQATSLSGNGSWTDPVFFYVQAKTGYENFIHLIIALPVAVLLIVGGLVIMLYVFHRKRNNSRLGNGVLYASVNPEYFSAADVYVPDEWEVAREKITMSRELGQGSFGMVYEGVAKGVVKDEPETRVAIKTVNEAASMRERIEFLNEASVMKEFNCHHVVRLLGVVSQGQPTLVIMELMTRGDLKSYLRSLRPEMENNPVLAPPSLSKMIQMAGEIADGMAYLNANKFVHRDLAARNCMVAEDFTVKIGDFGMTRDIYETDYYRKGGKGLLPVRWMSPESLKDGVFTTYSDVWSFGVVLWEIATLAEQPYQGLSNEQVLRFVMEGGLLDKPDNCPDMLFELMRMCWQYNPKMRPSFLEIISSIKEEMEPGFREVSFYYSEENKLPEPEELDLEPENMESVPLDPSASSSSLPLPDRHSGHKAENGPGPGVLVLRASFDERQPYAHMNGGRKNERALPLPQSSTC
READOUT_KIND: Ratio of activation intensity, PathHunter

FW1_var14_NEKS (antibody, human IgG4, V domains shown) VH: QVQLVQSGAEVKKPGASVKVSCKASGYTFTSYWMHWVRQAPGQGLEWMGETNPSNSVTNYNEKFKSRVTLTVDTSTSTAYMELSSLRSEDTATYYCTIGRGRGFAYWGQGTLVTVSS VL: DIQMTQSPSSVSASVGDRVTITCRASQNINFWLSWYQQKPGKAPRLLIYKASNLHTGVPSRFSGSGSGTDFTLTISSLQPEDFATYYCLQGQSYPYTFGGGTKLEIK | 0.49 relative to IGF11-16
mouse parent antibody IGF11-16 (antibody, mouse IgG1, kappa, V domains shown) VH: QIQLQQPGAELVKPGASVKLSCKAPGYTFTSYWMHWVKQRPGQGLEWIGETNPSNSVTNYNEKFKSKATLTVDKSSSTAYMQLSSLTSEDSAVYYCTIGRGRGFAYWGQGTLVTVSA VL: DIQMNQSPSSLSASLGDTITITCRASQNINFWLSWCQQKPGNIPKLLIYKASNLHTGVPSRFSGSGSGTDFTLTISSLQPEDIATYYCLQGQSYPYTFGGGTKLEIKR | 1 relative to IGF11-16
FW1_var1 antibody (antibody, V domains shown) VH: QVQLVQSGAEVKKPGASVKVSCKASGYTFTSYWMHWVRQAPGQGLEWMGETNPSNSVTNYAQKFQGRVTLTVDTSTSTAYMELSSLRSEDTAVYYCTIGRGRGFAYWGQGTLVTVSS VL: DIQMTQSPSSVSASVGDRVTITCRASQNINFWLSWCQQKPGKIPKLLIYKASNLHTGVPSRFSGSGSGTDFTLTISSLQPEDFATYYCLQGQSYPYTFGGGTKLEIK | 0.64 relative to IGF11-16
FW1_var10_NEKS (antibody, human IgG4, V domains shown) VH: QVQLVQSGAEVKKPGASVKVSCKASGYTFTSYWMHWVRQAPGQGLEWMGETNPSNSVTNYNEKFKSRVTLTVDTSTSTAYMELSSLRSEDTATYYCTIGRGRGFAYWGQGTLVTVSS VL: DIQMTQSPSSVSASVGDRVTITCRASQNINFWLSWYQQKPGKAPKLLIYKASNLHTGVPSRFSGSGSGTDFTLTISSLQPEDFATYYCLQGQSYPYTFGGGTKLEIK | 0.55 relative to IGF11-16
